All figures here come from patent US20050054629A1.

Catalogue of compounds with associated IC50
System: MCF-7 breast carcinoma
Test: Cytotoxicity assay (MTT), 6 days
Type: cell-based
Settings: Homo sapiens, MCF7, 144 h, 6 days of treatment, read-out: Toxicity 6d (IC 50, μM) MCF7
Protocol: Four human tumoral cell lines, namely HCT116 colon adenocarcinoma, H460 lung carcinoma, MCF-7 and MDA-MB-231 breast carcinoma cell lines, and three immortalized but non tumorigenic cell lines, namely NIH3T3 mouse fibroblasts and human breast-derived MCF10-A and MRC-5 were purchased at ATCC and cultured according to their recommendations. […] Absorbance was measured using a spectrophotometer at a wavelength of 550 nm. Cell surviving fraction and 50% inhibitory concentration were calculated. […]
Report as a plain number; the unit µM is understood.

Some solved entries appear below for comparison.
C/C=C/c1oc(CO)cc(=O)c1OCCCCCOc1ccccc1CCC	20
C/C=C/c1oc(CO)cc(=O)c1OCCCCCOc1ccc(Cl)c(Cl)c1	45
O=c1cc(CO)occ1OCCCCCOc1ccc(Cl)c(Cl)c1	35

Shifting focus to the compound that follows.
Consider the compound shown here: O=c1cc(CO)occ1OCCCCOc1ccc(Cl)c(Cl)c1 What is its recorded IC50?
20

---

Test system: HCT116 cells
Assay: Anchorage-independent growth assay (soft agar / Matrigel)
Type: cell-based, human
Conditions: Homo sapiens, HCT-116, 168 h; HCT116, 3-dimensional growth, 1 week
QUANTITY: IC50

Some solved entries appear below for comparison.
CCCc1ccccc1OCCCCCOc1coc(CO)cc1=O [EH18900]	1 to 5 µM
C/C=C/c1oc(CO)cc(=O)c1OCCCCCOc1cccc(Cl)c1 [EH16201]	12.5 µM
C/C=C/c1oc(CO)cc(=O)c1OCCCCCOc1ccc(Cl)c(Cl)c1CCC [EH31101]	< 1 µM
CCCc1c(OCCCCCOc2coc(CO)cc2=O)ccc(Cl)c1Cl [EH22900]	< 1 µM
C/C=C/c1oc(CO)cc(=O)c1OCCCCCOc1ccc(Cl)c(Cl)c1 [EH30101]	7.5 µM

Consider the compound shown here: C/C=C/c1oc(CO)cc(=O)c1OCCCCCOc1ccc(Cl)cc1 [EH26101] What is its recorded IC50?
50 µM

---

System: H460 lung carcinoma
Experiment: Cytotoxicity assay (MTT), 6 days
Type: cell-based
Conditions: Homo sapiens, NCI-H460, 144 h, 6 days of treatment, read-out: Toxicity 6d (IC 50, μM) H460
Catalogue of compounds with associated IC50

O=C(O)c1cc(=O)c(OCCCCOc2ccc(Cl)c(Cl)c2)co1	> 50 µM
C/C=C/c1oc(C(=O)O)cc(=O)c1OCCCCCOc1ccc(Cl)cc1	> 50 µM

Shifting focus to the compound that follows.
Hi! What's the reported IC50 for CCCc1ccccc1OCCCCCOc1coc(C(=O)O)cc1=O on H460 lung carcinoma?
> 50 µM

---

System: MCF-7 breast carcinoma
Assay: Cytotoxicity assay (MTT), 6 days
Format: cell-based
Conditions: Homo sapiens, MCF7, 144 h, 6 days of treatment, read-out: Toxicity 6d (IC 50, μM) MCF7
QUANTITY: IC50 (µM)
Report as a plain number; the unit µM is understood.

Hi! What's the reported IC50 for C/C=C/c1oc(CO)cc(=O)c1OCCCCCOc1cccc(Cl)c1 on MCF-7 breast carcinoma?
25

Hi! What's the reported IC50 for CCCc1c(OCCCCCOc2coc(C(=O)O)cc2=O)ccc(Cl)c1Cl on MCF-7 breast carcinoma?
40

Hi! What's the reported IC50 for O=C(O)c1cc(=O)c(OCCCCCOc2ccc(Cl)c(Cl)c2)co1 on MCF-7 breast carcinoma?
30

Hi! What's the reported IC50 for CCCc1ccccc1OCCCCCOc1coc(CO)cc1=O on MCF-7 breast carcinoma?
30

Hi! What's the reported IC50 for CCCc1cc(Cl)c(Cl)cc1OCCCCCOc1coc(CO)cc1=O on MCF-7 breast carcinoma?
20

Hi! What's the reported IC50 for CCOc1ccccc1OCCCCCOc1coc(CO)cc1=O on MCF-7 breast carcinoma?
15
